- assay.comment: Quantitative High-Throughput drug screen in 47 multiple myeloma cell lines against the NCATS MIPE library collection: FR4_PLB cell viability assay (AID 1918924; further: nearly all actives have a fitted effect of over 35% in size)
- study.conditions: FR4_PLB myeloma cells viability, CellTiter-Glo ATP, 48 h; series mostly up to 45.8 µM
Results filed as inconclusive are left out. Activity calls are given as the source filed them. The call rests on the fitted dose curve; in most records, active means well fitted cell-killing curve with a large enough effect; inconclusive means small, poorly fitted or top-dose-only effect, or effect the other way; inactive means no such curve, though single readings can be large or run the other way.
Outcomes: 1 for active, 0 for inactive

chemical.smiles | discrete.label
CN1CCN(CCOc2cc(OC3CCOCC3)c3c(Nc4c(Cl)ccc5c4OCO5)ncnc3c2)CC1 | 1
CCOC(=O)O[C@]1(C(=O)OCCl)CC[C@@H]2[C@H]3CCC4=CC(=O)C=C[C@]4(C)[C@@H]3[C@@H](O)C[C@@]21C | 0
CC(C)(Cc1ccc2ccccc2c1)NC[C@@H](O)COc1cccc(Cl)c1C#N | 0
O=C1NC(=O)C(=Cc2ccc(-c3ccc(F)cc3)o2)S1 | 0
CCCCCCCCCCCC1=C(O)C(=O)C=C(O)C1=O | 1
Cc1ccc(C(=O)Nc2cccc(C(F)(F)F)c2)cc1Nc1nc(-c2cccnc2)nc2c1cnn2C | 1
C[C@H]1[C@H](NC(=O)C(=NOC(C)(C)C(=O)O)c2csc(N)n2)C(=O)N1S(=O)(=O)O | 0
NC[C@@H]1O[C@@H](O[C@H]2[C@@H](O)[C@H](O[C@@H]3[C@@H](O)[C@@H](N)C[C@H](N)[C@H]3O[C@H]3O[C@H](CN)[C@@H](O)[C@@H](O)[C@H]3N)O[C@H]2CO)[C@H](N)[C@@H](O)[C@@H]1O | 0
O=c1ccn([C@@H]2O[C@H](CO)[C@H](O)[C@H]2O)c(=O)[nH]1 | 0
OC[C@H]1O[C@@H](Oc2cc(O)cc(C=Cc3ccc(O)cc3)c2)[C@H](O)[C@@H](O)[C@H]1O | 0
COc1ccc2c(Oc3ccc(NC(=O)c4c(C)n(CC(C)(C)O)n(-c5ccccc5)c4=O)cc3F)ccnc2c1 | 1
COc1cc(NC(=O)c2ccc(-c3ccc(Cl)cc3)o2)cc(OC)c1 | 0
CCN(CC)CCOc1ccc(C(=C(Cl)c2ccccc2)c2ccccc2)cc1 | 0
CC#CCn1c(N2CCC[C@@H](N)C2)nc2c1c(=O)n(Cc1nc(C)c3ccccc3n1)c(=O)n2C | 0
COc1cc2ncnc(Nc3ccc(F)c(Cl)c3)c2cc1OCCCN1CCOCC1 | 1
NC(=O)NN=Cc1ccc([N+](=O)[O-])o1 | 0

###

- assay.comment: qHTS of pediatric cancer cell lines to identify multiple opportunities for drug repurposing: Confirmatory screen for BT-37 cells (AID 1347117);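 further: viability measured after 48 h of compound exposure; nearly all actives have a fitted effect of over 55% in size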
- study.conditions: BT-37 pediatric cancer cells, viability; series mostly up to 45.9 µM
Inconclusive results are not listed. Active and inactive are the calls of the source. Calls follow the shape of the dose curve; as a rule, active = well fitted cell-killing curve with a large enough effect; inconclusive = small, poorly fitted or top-dose-only effect; inactive = no such curve, though single readings can be large or run the other way.
Outcomes: active, inactive

compound | discrete.label
NS(=O)(=O)c1cccc2c1C(=O)c1cccc(O)c1C2=O | active
CN(C)C1CCN(C(=O)c2ccc(NC(=O)Nc3nc(N4CCOCC4)nc(N4CCOCC4)n3)cc2)CC1 | active
O=c1[nH]cnc2c1ncn2[C@H]1CC[C@@H](CO)O1 | inactive
CCc1ccc(OCc2ccccc2C(=O)Nc2ccc3nc(C)cc(N)c3c2)cc1 | active
CC(=O)Oc1cc2c(s1)CCN(C(C(=O)C1CC1)c1ccccc1F)C2 (centres undefined) | inactive
COc1ccc2c(Oc3ccc(NC(=O)c4c(C)n(CC(C)(C)O)n(-c5ccccc5)c4=O)cc3F)ccnc2c1 | inactive
N[C@@]1(C(=O)O)CS(=O)(=O)[C@H]2[C@H](C(=O)O)[C@H]21 | active
Cc1cc(OCCCc2c(C(=O)O)n(Cc3cccnc3)c3c(-c4c(COc5ccc(N6CCN([S+](C)(=O)[O-])CC6)cc5)nn(C)c4C)cccc23)cc(C)c1Cl | active
CNC1CCC(N(Cc2cccc(-c3ccncc3)c2)C(=O)c2sc3c(F)ccc(F)c3c2Cl)CC1 (centres undefined) | active

###

- assay.comment: Quantitative High-Throughput drug screen in 47 multiple myeloma cell lines against the NCATS MIPE library collection: KMS28PE_JCRB cell viability assay (AID 1918983); further: nearly all actives have a fitted effect of over 35% in size
- study.conditions: KMS28PE multiple myeloma viability, CellTiter-Glo ATP, 48 h; series mostly up to 45.8 µM
Inconclusive results are not listed. Calls of active or inactive are those of the source. Calls follow the shape of the dose curve; as a rule, active = well fitted cell-killing curve with a large enough effect; inconclusive = small, poorly fitted or top-dose-only effect, or effect the other way; inactive = no such curve, though single readings can be large or run the other way.
Outcomes: TRUE for active, FALSE for inactive

molecule | discrete.label
NS(=O)(=O)c1cccc2c1C(=O)c1cccc(O)c1C2=O | TRUE
COc1cccc2c1CCCC2CCCN1CCN(C2CCCCC2)CC1 (stereo not drawn) | TRUE
Cc1ccn(-c2ccc(-c3ncco3)cc2)c(=O)c1-c1ccc2nc(N)ncc2c1 | FALSE
Cc1cnc(C(=O)O)c[n+]1[O-] | TRUE
COc1ccc(Cc2nccc3cc(OC)c(OC)cc23)cc1OC | TRUE
CN(C)CCC=C1c2ccccc2COc2ccc(CC(=O)O)cc21 | FALSE
CC[C@]1(O)C[C@@H]2CN(CCc3c([nH]c4ccccc34)[C@@](C(=O)OC)(c3cc4c(cc3OC)N(C=O)[C@@H]3C45CCN4CC=C[C@](CC)([C@H]45)[C@@H](OC(C)=O)[C@]3(O)C(=O)OC)C2)C1 (stereo partly drawn) | TRUE
COc1ccc(-c2cc(=O)c3c(O)cc(O)cc3o2)cc1O | FALSE
OC[C@H]1O[C@@H](Oc2cc(O)cc(C=Cc3ccc(O)cc3)c2)[C@H](O)[C@@H](O)[C@H]1O | FALSE
O=C(Nc1cccc(Br)c1)c1cccc(S(=O)(=O)N2CCCCCC2)c1 | TRUE
Cn1cc(C=C2C(=O)Nc3cccnc32)c2ccccc21 | FALSE
Nc1ncnc2c1nc(Cl)n2[C@@H]1O[C@H](CO)[C@@H](O)[C@@H]1O | TRUE
COc1ccc2cccc(CCNC(C)=O)c2c1 | FALSE
CCc1ccc(C=C2SC(=S)NC2=O)cc1 | FALSE
COc1cc2nc(-c3ccc(N4CCN(C)CC4)cc3)nc(NCCN3CCOCC3)c2cc1OC | TRUE
CC(=O)N(C)C1(c2ccccc2)CCN(CCC[C@]2(c3ccc(Cl)c(Cl)c3)CCCN(C(=O)c3ccccc3)C2)CC1 | TRUE
COc1ccc(-n2c(C)c([N+](=O)[O-])c3ccc(O)cc32)cc1 | FALSE
O=C(Nc1cc(Cl)cc2c1[nH]c1cnccc12)c1cccnc1 | TRUE

###

- assay.comment: Cell Viability - LYMP1-002 - Assay at 40 hr (AID 994); further: nearly all actives have a fitted effect of over 60% in size
- study.conditions: LYMP1-002 lymphoblastoid cell viability; series mostly up to 92.2 µM
Records with an inconclusive call do not appear. The source made the active and inactive calls. Calls follow the shape of the dose curve; as a rule, active = well fitted cell-killing curve with a large enough effect; inconclusive = small, poorly fitted or top-dose-only effect; inactive = flat fitted curve, though single readings scatter.
Outcomes: yes (1) (active), no (0) (inactive)

compound | discrete.label
O=C1NC(=O)C(c2ccccc2)(c2ccccc2)N1 | no (0)
CC(=O)O[C@]1(C(C)=O)CC[C@H]2[C@@H]3C=C(Cl)C4=CC(=O)[C@@H]5C[C@@H]5[C@]4(C)[C@H]3CC[C@@]21C | no (0)
CN(C)CCC(c1ccccc1)c1ccccn1 (stereo not given) | no (0)
CC/C(=C(\c1ccccc1)c1ccc(OCCN(C)C)cc1)c1ccccc1 | yes (1)
O=c1[nH]cnc2c1ncn2[C@H]1CC[C@@H](CO)O1 | no (0)

###

- assay.comment: qHTS drug screen for cell cycle checkpoint inhibitors in PARPi-resistant BRCA-mutant ovarian cancer cell lines. (AID 1963452)
- study.conditions: PEO1/OlaR viability, CellTiter-Glo luminescence, 96 h; active compounds read low

chemical.smiles | Z-AUC
CC(C)OC(=O)C(C)(C)Oc1ccc(C(=O)c2ccc(Cl)cc2)cc1 | -0.547
O=c1cc(N2CCOCC2)oc2c(-c3cccc4c3sc3ccccc34)cccc12 | 0.27
Cc1ccn(-c2ccc(-c3ncco3)cc2)c(=O)c1-c1ccc2nc(N)ncc2c1 | 1.02
O=c1cc(-c2cccc3c2Sc2ccccc2S3)oc(N2CCOCC2)c1 | 1.05
CC1(C)CCC(CN2CCN(c3ccc(C(=O)NS(=O)(=O)c4ccc(NCC5CCOCC5)c([N+](=O)[O-])c4)c(Oc4cnc5[nH]ccc5c4)c3)CC2)=C(c2ccc(Cl)cc2)C1 | 0.0291
CCOC(CN1C(=O)[C@](CC(=O)Nc2ccc(C)cc2)(NC(=O)Nc2ccc(C)cc2)c2ccccc21)OCC | 1.21
CN(C[C@@H]1COCCO1)S(=O)(=O)Nc1ccc2ccc3ncc(-c4cnn(C)c4)cc3c(=O)c2c1 | -0.656
CC(C)n1cnc2c(NCCCCCCNC(=O)OC(C)(C)C)nc(NCCO)nc21 | 0.728
CC/C(=C(\c1ccccc1)c1ccc(OCCN(C)C)cc1)c1ccccc1 | -0.344

###

- Test system: NIH3T3
- assay.comment: Cytotoxic Profiling of Annotated Libraries Using Quantitative High-Throughput Screening (AID 1296008); further: nearly all actives have a fitted effect of over 60% in size
- study.conditions: Five cell lines viability, CellTiter-Glo ATP luminescence, 48-72 h
Results filed as inconclusive are left out. Activity calls are given as the source filed them. The call rests on the fitted dose curve; in most records, active means well fitted inhibition curve with a large enough effect; inconclusive means small, poorly fitted or top-dose-only effect; inactive means flat fitted curve, though single readings scatter.
Outcomes: y (active), n (inactive)

compound | discrete.label
COc1ncc(-c2ccc3nccc(-c4ccnnc4)c3c2)cc1NS(=O)(=O)c1ccc(F)cc1F | y
CON=C(C(=O)N[C@@H]1C(=O)N2C(C(=O)OCOC(=O)C(C)(C)C)=C(C=Cc3scnc3C)CS[C@H]12)c1csc(N)n1 | n
Cc1ccc(C(=O)Nc2cccc(C(F)(F)F)c2)cc1Nc1nc(-c2cccnc2)nc2c1cnn2C | y
C[C@]12CC[C@@H]3c4ccc(O)cc4C[C@@H](CCCCCCCCCS(=O)CCCC(F)(F)C(F)(F)F)[C@H]3[C@H]1CC[C@H]2O (stereo partly drawn) | n
CC(C)C(=O)Oc1ccc(CO)cc1[C@H](CCN(C(C)C)C(C)C)c1ccccc1 | n
O=c1cc(N2CCOCC2)oc2c(-c3cccc4c3sc3ccccc34)cccc12 | y
COC(=O)C1=CO[C@@H](O)[C@@H]2C(CO)=CC[C@@H]12 | n
CCNc1cc(NC2CCC(O)CC2)nc(Nc2ccc3c(ccn3Cc3ccccc3)c2)n1 (stereo not drawn) | n
